# Test system: Hs-578T
# testMethodNotes: NCI tumour cell line growth inhibition, 48 h
Counter-ions that a name gives are not always drawn. The source made the active and inactive calls. No stated cut-off is given here; in the data, active = GI50 up to about 1.1 µM and inactive = higher.
Give your call using only these classes: true (1) for active, false (0) for inactive

Examples with answers:
molecule="COc1cccc2c1C(=O)c1c(O)c3c(c(O)c1C2=O)C[C@@](O)(/C(C)=N/NC(=O)c1ccc(Cl)c(Cl)c1)C[C@@H]3OC1CC(N)C(O)C(C)O1 (stereo not given in full)" answerlabel="true (1)"
molecule=CN1CCN(c2ccc3nc(-c4cc(O)c5c(nc(CO)n5C)c4O)[nH]c3n2)CC1 answerlabel="false (0)"
molecule="CN(C)CCOC(c1ccccc1)c1ccccc1 [DIPHENHYDRAMINE HYDROCHLORIDE]" answerlabel="false (0)"
molecule="CC(C)CC1c2[nH]c3ccccc3c2C[C@H]2C(=O)NC(CCCCNC(=O)OC(C)(C)C)C(=O)N12 (stereo not given in full)" answerlabel="false (0)"
molecule=CCn1ncc2c1nc(-c1ccccc1)c[n+]2[O-] answerlabel="false (0)"
molecule="O=C1C(Cl)C(c2cc3cc(Br)ccc3nc2Cl)N1c1ccc(Cl)cc1 (stereo not given)" answerlabel="false (0)"

Check the results log: what was the call for O=C1c2ccccc2/C=C\C(c2ccccc2)=N/N1c1ccccc1Cl ? false (0)

Next entry: N=C(N)c1ccc(OCCCCCOc2ccc(C(=N)N)cc2)cc1 false (0)

----------
# Test system: PC-3
# testMethodNotes: NCI tumour cell line growth inhibition, 48 h
Activity calls are given as the source filed them. Cut-off read from the data, not from the text of the source: active = GI50 up to about 1.1 µM and inactive = higher.
Listing of recorded GI50 by entry.

Recorded GI50, per entry:
compound=c1ccc(/N=c2/sc3ccccc3s/c2=N/c2ccccc2)cc1 result="12.8 µM (inactive)"
compound="CCOP(=O)(OCC)OC1CC(n2cnc3c(N(CC)CC)ncnc32)OC1CO[Si](C)(C)C(C)(C)C (stereo not drawn)" result="12.2 µM (inactive)"

Could you tell me which GI50 is on file for COc1ccc(CNC(=O)[C@H](Cc2ccc(O)cn2)NC(C)=O)cc1OC ? > 100 µM (inactive)

----------
# Test system: SNB-19
# testMethodNotes: NCI tumour cell line growth inhibition, 48 h
Active and inactive are the calls of the source. Cut-off read from the data, not from the text of the source: active = GI50 up to about 1.1 µM and inactive = higher.
parameterMeasured: GI50

Recorded GI50, per entry:
compound=CCO/C=N/C1=C(C#N)SC2=N/C(=C\c3ccccc3)C(=O)N21 result="> 100 µM (inactive)"
compound="COc1ccc([C@H]2CC(=O)N3CCCC3N2)cc1 (stereo not given in full)" result="> 100 µM (inactive)"
compound="COc1ccc(C2SCC(=O)N2c2ccc(-n3c(-c4ccccc4)nc4ccccc4c3=O)cc2)cc1 (stereo not given)" result="> 100 µM (inactive)"
compound="BrC1=CC=C2NC=CC3=CC=NC1C32 (stereo not given)" result="8.51 µM (inactive)"

Let's switch to this compound now.
Could you tell me which GI50 is on file for Clc1nc(Nc2nc3ccccc3[nH]2)nc(Cl)c1Cc1ccccc1 ? 93.1 µM (inactive)

----------
# System: RPMI-8226
# testMethodNotes: NCI tumour cell line growth inhibition, 48 h
The source made the active and inactive calls. Rule as the data show it: active = GI50 up to about 1.1 µM and inactive = higher.
Listing of recorded GI50 by entry.

Recorded GI50, per entry:
compound=O=P1(N2CCOCC2)OCCO1 result="> 100 µM (inactive)"
compound="CC1C[C@]2(C[C@@H](C)C(=O)O2)OC2CC3(C)C4CCC5C(C)(C)OC(=O)CC[C@@]56C[C@@]46CC[C@]3(C)C12 (some centres not stated)" result="> 100 µM (inactive)"
compound="Nc1ccc(C(=O)NN2C(=O)C(Cl)C2c2ccccc2Cl)cc1 (configuration not stated)" result="6.25 µM (inactive)"

Please tell me: GI50 of CC1(C)O[C@@H](CCl)C[C@@H](C#N)O1 , system RPMI-8226? > 100 µM (inactive)

Next entry: O=C(O)CC(Cc1ccccc1)C(=O)O (configuration not stated) > 100 µM (inactive)

Next entry: Cc1cccc(Nc2nc(NNC(=O)Cc3ccccc3)nc(NNC(=O)c3ccncc3)n2)c1 > 10 µM (inactive)

Next entry: CC(/C=C1\CCC(CN(C)C)C1=O)c1cccc(Br)c1 (configuration not stated) 2 µM (inactive)
